studySystem: EGFR Del19/C797S (Homo sapiens, UniProt P00533, C797S/DEL746-750)
Sequence (P00533 with tags, fused parts or gaps DEL746-750/C797S): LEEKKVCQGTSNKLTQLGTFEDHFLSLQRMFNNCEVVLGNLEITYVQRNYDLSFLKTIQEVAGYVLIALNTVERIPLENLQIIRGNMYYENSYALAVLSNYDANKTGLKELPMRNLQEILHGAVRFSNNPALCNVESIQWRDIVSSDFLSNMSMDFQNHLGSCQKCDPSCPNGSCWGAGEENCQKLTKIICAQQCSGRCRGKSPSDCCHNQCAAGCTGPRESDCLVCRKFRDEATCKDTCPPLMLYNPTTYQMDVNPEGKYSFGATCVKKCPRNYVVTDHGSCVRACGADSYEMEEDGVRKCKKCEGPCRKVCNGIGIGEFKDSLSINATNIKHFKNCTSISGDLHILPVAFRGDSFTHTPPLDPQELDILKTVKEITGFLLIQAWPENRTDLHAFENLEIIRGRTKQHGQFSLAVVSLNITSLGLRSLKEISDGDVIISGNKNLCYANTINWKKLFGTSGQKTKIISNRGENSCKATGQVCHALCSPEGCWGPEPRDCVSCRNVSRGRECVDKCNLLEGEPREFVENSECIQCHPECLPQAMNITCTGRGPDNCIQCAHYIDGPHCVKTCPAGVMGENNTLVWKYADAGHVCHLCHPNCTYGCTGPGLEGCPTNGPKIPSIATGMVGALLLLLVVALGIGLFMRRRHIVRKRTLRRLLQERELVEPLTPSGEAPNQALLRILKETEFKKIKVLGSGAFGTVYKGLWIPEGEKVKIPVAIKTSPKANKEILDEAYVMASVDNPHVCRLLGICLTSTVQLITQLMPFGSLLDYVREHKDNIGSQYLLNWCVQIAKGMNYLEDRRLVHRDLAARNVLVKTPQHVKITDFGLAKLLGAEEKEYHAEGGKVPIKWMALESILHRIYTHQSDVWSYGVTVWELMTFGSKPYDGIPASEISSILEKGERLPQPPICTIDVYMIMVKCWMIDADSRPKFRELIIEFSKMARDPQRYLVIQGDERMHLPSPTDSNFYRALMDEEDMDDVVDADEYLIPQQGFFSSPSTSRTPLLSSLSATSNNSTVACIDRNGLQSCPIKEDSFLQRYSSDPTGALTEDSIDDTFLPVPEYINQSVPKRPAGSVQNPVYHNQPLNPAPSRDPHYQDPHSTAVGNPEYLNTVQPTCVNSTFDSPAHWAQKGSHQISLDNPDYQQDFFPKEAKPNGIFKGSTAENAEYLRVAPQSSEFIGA
assayNotes: Biochemical EGFR kinase inhibition assay (Lance Ultra TR-FRET), double mutant del19/C797S
conditionNotes: IC50 Del19/C797S (nM), 100 μM ATP
Field: IC50. Provide a value for each of the compounds that follow.
Kindly provide the numeric value in nM only, without the unit symbol.

Request: Fill in reported IC50 for this entry: Cn1cc(C#Cc2cnc(Nc3ccnc(-c4cnn(S(=O)(=O)C5CC5)c4)n3)cc2N[C@H]2CC[C@@H](O)CC2)c(C(F)(F)F)n1 [Example 92]
Response: 67.5

Request: Fill in reported IC50 for this entry: CN(C)CCCn1cc(C#Cc2cnc(Nc3ccnc(-c4cnn(S(=O)(=O)C5CC5)c4)n3)cc2N2CCCC(CO)C2)cn1 (stereo not drawn) [Example 122]
Response: 0.8

Request: Fill in reported IC50 for this entry: C[C@]1(O)CC[C@H](CNc2cc(Nc3ccnc(-c4cnn(S(=O)(=O)C5CC5)c4)n3)ncc2C#Cc2cnn(CCF)c2)CC1 [Example 380]
Response: 58.7

Request: Fill in reported IC50 for this entry: CNCC1(C)CCN(c2cc(Nc3ccnc(-c4cnn(S(=O)(=O)C5CC5)c4)n3)ncc2C#Cc2cnn(C)c2)CC1 [Example 146]
Response: 0.5

Request: Fill in reported IC50 for this entry: CC1(CO)CCN(c2cc(Nc3ccnc(-c4cnn(S(=O)(=O)C5CC5)c4)n3)ncc2C#Cc2cnn(CC3CCCOC3)c2)CC1 (stereo not drawn) [Example 241]
Response: 1.7

Request: Fill in reported IC50 for this entry: CN1CCN(Cc2ccc(C#Cc3cnc(Nc4ccnc(-c5cnn(S(=O)(=O)C6CC6)c5)n4)cc3N[C@H]3CC[C@]4(CCC(=O)N4)CC3)cc2)CC1 [Example 362]
Response: 1.7

----------
studySystem: EGFR L858R/C797S (Homo sapiens, UniProt P00533, C797S/L858R)
Sequence (P00533 25-1210 C797S/L858R): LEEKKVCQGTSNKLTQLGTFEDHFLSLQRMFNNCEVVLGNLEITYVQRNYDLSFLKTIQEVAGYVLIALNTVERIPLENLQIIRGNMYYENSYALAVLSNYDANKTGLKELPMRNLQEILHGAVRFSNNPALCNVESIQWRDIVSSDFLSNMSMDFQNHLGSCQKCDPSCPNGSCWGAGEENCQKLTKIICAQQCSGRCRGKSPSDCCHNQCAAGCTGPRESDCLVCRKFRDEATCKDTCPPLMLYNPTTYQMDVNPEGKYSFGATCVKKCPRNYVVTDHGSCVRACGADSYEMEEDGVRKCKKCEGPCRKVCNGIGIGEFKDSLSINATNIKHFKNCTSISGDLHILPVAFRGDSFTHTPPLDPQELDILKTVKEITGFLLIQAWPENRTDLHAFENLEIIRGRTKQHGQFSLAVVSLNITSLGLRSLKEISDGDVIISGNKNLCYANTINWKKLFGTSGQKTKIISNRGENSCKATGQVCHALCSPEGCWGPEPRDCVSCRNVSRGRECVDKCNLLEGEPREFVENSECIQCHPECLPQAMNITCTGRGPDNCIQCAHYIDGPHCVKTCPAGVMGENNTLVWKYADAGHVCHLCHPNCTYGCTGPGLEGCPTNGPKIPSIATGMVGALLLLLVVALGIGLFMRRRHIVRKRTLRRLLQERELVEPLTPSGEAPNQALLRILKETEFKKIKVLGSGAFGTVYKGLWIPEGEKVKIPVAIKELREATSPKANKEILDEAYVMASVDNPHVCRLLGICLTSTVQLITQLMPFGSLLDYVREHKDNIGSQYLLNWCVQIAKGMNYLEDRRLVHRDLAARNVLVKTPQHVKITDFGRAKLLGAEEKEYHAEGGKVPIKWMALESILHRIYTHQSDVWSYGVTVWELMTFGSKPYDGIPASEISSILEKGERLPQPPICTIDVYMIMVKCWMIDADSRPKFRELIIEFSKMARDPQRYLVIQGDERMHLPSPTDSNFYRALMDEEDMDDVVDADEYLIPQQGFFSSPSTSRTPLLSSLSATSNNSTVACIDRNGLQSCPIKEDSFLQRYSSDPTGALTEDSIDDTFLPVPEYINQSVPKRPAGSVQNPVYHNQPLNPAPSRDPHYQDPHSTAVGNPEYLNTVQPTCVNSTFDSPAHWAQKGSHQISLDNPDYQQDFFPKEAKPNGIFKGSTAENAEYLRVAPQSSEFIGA
assayNotes: Biochemical EGFR kinase inhibition assay (Lance Ultra TR-FRET), double mutant L858R/C797S
conditionNotes: IC50 L858R/C797S (nM), 100 μM ATP
Field: log10(IC50). Provide a value for each of the molecules that follow.
// do not treat as linear: log10 of IC50, unit nM

Request: Fill in reported log10(IC50) for this entry: Cn1cc(C#Cc2cnc(Nc3ccnc(-c4cnn(S(=O)(=O)C5CC5)c4)n3)cc2NC2CCCC(F)C2)cn1 (stereo not drawn) [Example 74]
Response: 2.26

Request: Fill in reported log10(IC50) for this entry: CC1(CO)CCN(c2cc(Nc3ccnc(-c4ccc(F)nc4)n3)ncc2C#Cc2cnn(C(F)(F)F)c2)CC1 [Example 269]
Response: 3.13

Request: Fill in reported log10(IC50) for this entry: O=S(=O)(C1CC1)n1cc(-c2nccc(Nc3cc(N[C@H]4CC[C@@H](CO)CC4)c(C#Cc4cnn(C(F)(F)F)c4)cn3)n2)cn1 [Example 336]
Response: 3.24

Request: Fill in reported log10(IC50) for this entry: O=C(c1ccc(C#Cc2cnc(Nc3ccnc(-c4cnn(S(=O)(=O)C5CC5)c4)n3)cc2N2CCC[C@H](O)C2)cc1)N1CCC(O)CC1 [Example 445]
Response: 2.02

Request: Fill in reported log10(IC50) for this entry: CN(C)CCCn1cc(C#Cc2cnc(Nc3ccnc(-c4cnn(S(=O)(=O)C5CC5)c4)n3)cc2N2CCCC(CO)C2)cn1 (stereo not drawn) [Example 122]
Response: 1.07

Request: Fill in reported log10(IC50) for this entry: CN(C)CCCn1cc(C#Cc2cnc(Nc3ccnc(-c4cnn(S(=O)(=O)C5CC5)c4)n3)cc2N2CCC3(CC2)CC(C)(O)C3)cn1 [Example 152]
Response: -0.10
